growth values for the compounds below.
- Test system: SK-OV-3 ovarian
- protocol_description: NCI-60 one-dose screen, 48 h (100 = growth as untreated, 0 = no growth, -100 = all killed)
- settings: 10 µM unless noted
This is part of a sample that, as a whole, favours compounds with a hit. Of some 83,000 tested, about 20% had one in any assay.
measured_quantity: growth (%)

1. CCCCn1c(=O)[nH]c(N)c(C(c2ccc(F)cc2)c2c(N)[nH]c(=O)n(CCCC)c2=O)c1=O: 80.6
2. O[C@H]1CO[C@H]2[C@@H]1OC[C@@H]2Oc1ccc(Nc2ccnc(Nc3ccc(O[C@H]4CO[C@H]5[C@@H]4OC[C@@H]5O)c(Cl)c3)n2)cc1Cl: 19.1
3. CCN(CC)CCOc1ccc(/C(=C(\C)c2ccc(F)c(OC)c2)c2ccc(Cl)cc2)cc1: 54
4. CCCCOC(=O)c1ccc(NC(=O)C(C)N2CCOCC2)cc1 (stereo not given): 109
5. NC(=Nc1ccc(N)cc1)C(N)=Nc1ccc(N)cc1: 126

FYI, the data here is from PubChem BioAssay (NCI).
